src = ChEMBL document CHEMBL1155947

test: Oral bioavailability in dog at 0.1 mg/kg by cassette assay; assay type: ADME, organism-based, Canis lupus familiaris; conditions: in vivo
metric: bioavailability (%)

COc1ccc(Oc2ccc3c(c2)C[C@@H](NC[C@H](O)c2ccc(Cl)cc2)CC3)cc1C(=O)O
64.2
COc1ccc(Oc2ccc3c(c2)C[C@@H](NC[C@H](O)c2ccc(Cl)nc2)CC3)cc1C(=O)O
76.8

----------
EC50: recorded values
target: Beta-1 adrenergic receptor (Homo sapiens)

Example results:
O=C(O)c1cccnc1Oc1ccc2c(c1)C[C@@H](NC[C@H](O)c1cccc(Cl)c1)CC2
> 100 nM
O=C(O)c1ccc(-c2ccc3c(c2)C[C@@H](NC[C@H](O)c2cccc(Cl)c2)CCC3)cc1
> 100 nM

Challenge: // lookup EC50 for O=C(O)c1ccc(Oc2ccc3c(c2)C[C@@H](NC[C@H](O)c2cccc(Cl)c2)CC3)cc1
Response given: > 100 nM

Challenge: What about this molecule? O=C(O)c1cc(Oc2ccc3c(c2)C[C@@H](NC[C@H](O)c2cccc(Cl)c2)CC3)ccc1Cl
Response given: > 1000 nM

Challenge: // next record O=C(O)c1ccc(-c2ccc3c(c2)C[C@@H](NC[C@H](O)c2ccc(Cl)nc2)CC3)cc1
Response given: 200 nM

----------
test: Oral bioavailability in dog at 0.83 mg/kg; type: ADME, organism-based, Canis lupus familiaris; details: in vivo
metric: bioavailability (%)
Give just the numeric value; % need not be written.

Challenge: Look at this compound and give its reported bioavailability. CCOC(=O)COc1ccc2c(c1)C[C@@H](NC[C@H](O)c1cccc(Cl)c1)CCC2
Response given: 73

----------
assay: Cmax in rat at 1.0 mg/kg, po; format: ADME, organism-based; set-up: dose 1 mg/kg, route oral; settings: in vivo
metric: Cmax (ng/mL)
Give a bare numeral; the unit ng/mL is implied.

Challenge: // Cmax lookup, key: O=C(O)COc1ccc2c(c1)C[C@@H](NC[C@H](O)c1cccc(Cl)c1)CC2
Response given: 28.1

----------
experiment: Terminal half life in dog at 0.1 mg/kg, iv by cassette assay; type: ADME, organism-based, Canis lupus familiaris; parameters: dose 0.1 mg/kg, route intravenous; conditions: in vivo
metric: half-life (h)

COc1ccc(Oc2ccc3c(c2)C[C@@H](NC[C@H](O)c2ccc(Cl)nc2)CC3)cc1C(=O)O
5.9
CN(C)c1cc(Oc2ccc3c(c2)C[C@@H](NC[C@H](O)c2cccc(Cl)c2)CC3)cc(C(=O)O)c1
3.94

P. O=C(O)c1ccc(-c2ccc3c(c2)C[C@@H](NC[C@H](O)c2ccc(Cl)cc2)CC3)cc1
Q. COc1ccc(Oc2ccc3c(c2)C[C@@H](NC[C@H](O)c2ccc(Cl)cc2)CC3)cc1C(=O)O
Challenge: half-life comparison. Which is larger, P or Q ? Identify your selection by its label.
Response given: P

----------
experiment: AUC (0 to 24 hrs) in dog at 0.2 mg/kg, po by cassette assay; assay type: ADME, organism-based, Canis lupus familiaris; parameters: time < 24 hr, dose 0.2 mg/kg, route oral; settings: plasma
metric: AUC(0-t) at 24 h (ng·h/mL)

Past entries and their recorded results:
CN(C)c1cc(Oc2ccc3c(c2)C[C@@H](NC[C@H](O)c2cccc(Cl)c2)CC3)cc(C(=O)O)c1
1470
O=C(O)COc1ccc2c(c1)C[C@@H](NC[C@H](O)c1cccc(Cl)c1)CC2
902
O=C(O)c1ccc(-c2ccc3c(c2)C[C@@H](NC[C@H](O)c2cccc(Cl)c2)CC3)cc1
1980

1. O=C(O)COc1ccc(-c2ccc3c(c2)C[C@@H](NC[C@H](O)c2cccc(Cl)c2)CC3)cc1
2. COc1ccc(Oc2ccc3c(c2)C[C@@H](NC[C@H](O)c2ccc(Cl)nc2)CC3)cc1C(=O)O
3. O=C(O)c1ccc(-c2ccc3c(c2)C[C@@H](NC[C@H](O)c2ccc(Cl)cc2)CC3)cc1
Challenge: Provide the items ranked by increasing AUC(0-t) at 24 h. # list labels per requested ordering
Response given: 1, 2, 3

----------
assay: Total clearance in rat at 0.51 mg/kg, iv by cassette assay; format: ADME, organism-based; set-up: dose 0.51 mg/kg, route intravenous; conditions: in vivo
metric: clearance (mL/min/kg)
Output spec: scalar in mL/min/kg, unitless text.

Challenge: Any idea what clearance was measured for COc1ccc(Oc2ccc3c(c2)C[C@@H](NC[C@H](O)c2ccc(Cl)nc2)CC3)cc1C(=O)O ?
Response given: 2.5

----------
assay: Oral bioavailability in monkey at 0.32 mg/kg by cassette assay; format: ADME, organism-based, Macaca mulatta; conditions: rhesus monkey, in vivo
metric: bioavailability (%)

a. COc1ccc(Oc2ccc3c(c2)C[C@@H](NC[C@H](O)c2ccc(Cl)nc2)CC3)cc1C(=O)O
b. COc1ccc(Oc2ccc3c(c2)C[C@@H](NC[C@H](O)c2ccc(Cl)cc2)CC3)cc1C(=O)O
c. O=C(O)c1ccc(-c2ccc3c(c2)C[C@@H](NC[C@H](O)c2ccc(Cl)cc2)CC3)cc1
Challenge: Highest to lowest bioavailability: rank the entries shown above. // respond by listing labels in the order requested
Response given: c, b, a
(c: 81.7%, b: 48%, a: 28.8%)

----------
experiment: AUC (0 to 24 hrs) in rat at 1.0 mg/kg, po; assay type: ADME, organism-based; design: time < 24 hr, dose 1 mg/kg, route oral; conditions: plasma
metric: AUC(0-t) at 24 h (ng·h/mL)
Answer with a number only, understood to be in ng·h/mL.

Challenge: Would you mind telling me what AUC(0-t) at 24 h value was observed for O=C(O)COc1ccc2c(c1)C[C@@H](NC[C@H](O)c1cccc(Cl)c1)CC2 ?
Response given: 177

----------
target: Beta-1 adrenergic receptor (Homo sapiens, UniProt P08588)
Sequence (P08588 whole entry): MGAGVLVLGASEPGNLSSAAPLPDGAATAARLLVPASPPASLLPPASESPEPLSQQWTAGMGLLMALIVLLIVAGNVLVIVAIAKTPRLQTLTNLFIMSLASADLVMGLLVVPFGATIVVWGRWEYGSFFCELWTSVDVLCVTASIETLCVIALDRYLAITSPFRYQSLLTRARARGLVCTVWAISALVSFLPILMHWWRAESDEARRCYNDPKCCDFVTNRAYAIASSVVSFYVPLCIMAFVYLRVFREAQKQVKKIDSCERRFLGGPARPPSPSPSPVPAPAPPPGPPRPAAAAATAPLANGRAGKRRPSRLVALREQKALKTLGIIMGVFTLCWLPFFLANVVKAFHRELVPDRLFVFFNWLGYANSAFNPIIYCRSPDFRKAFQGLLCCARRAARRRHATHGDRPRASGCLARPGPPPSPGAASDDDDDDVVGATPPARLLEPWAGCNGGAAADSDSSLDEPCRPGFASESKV
pEC50: −log10 of the molar value.
metric: pEC50

I. O=C(O)COc1ccc2c(c1)C[C@@H](NC[C@H](O)c1cccc(Cl)c1)CC2
II. COc1cc(Oc2ccc3c(c2)C[C@@H](NC[C@H](O)c2cccc(Cl)c2)CC3)cc(C(=O)O)c1
Challenge: Would you let me know which has the greater pEC50 value, I or II ? Give the label of your selection.
Response given: II

----------
system: Canis familiaris; experiment: Ratio of Cmax for drug to Cmax for 3-[((7S)-7-{[(2R)-2-(3-Chlorophenyl)-2-hydroxyethyl]amino}-5,6,7,8-tetrahydro-2-naphthalenyl)oxy]benzoic acid hydrochloride in dog at 0.1 or 0.20 mg/kg, po by cassette dosing assay; assay type: ADME, organism-based, Canis lupus familiaris; set-up: dose 0.2 mg/kg, route oral; conditions: in vivo, 0.2 mg/kg
metric: Ratio

A. O=C(O)c1cccc(Oc2ccc3c(c2)C[C@@H](NC[C@H](O)c2cccnc2)CC3)c1
B. CC(=O)Nc1cc(Oc2ccc3c(c2)C[C@@H](NC[C@H](O)c2cccc(Cl)c2)CC3)cc(C(=O)O)c1
C. Nc1cc(Oc2ccc3c(c2)C[C@@H](NC[C@H](O)c2cccc(Cl)c2)CC3)cc(C(=O)O)c1
Challenge: Reorder the items by Ratio, least to greatest. Would you mind listing the labels in the order asked for?
Response given: B, C, A

----------
assay: Terminal half life in rat at 0.51 mg/kg, iv by cassette assay; format: ADME, organism-based; parameters: dose 0.51 mg/kg, route intravenous; settings: in vivo
metric: half-life (h)
Just the number please, in h, no unit attached.

Challenge: Which value of half-life has been reported for COc1ccc(Oc2ccc3c(c2)C[C@@H](NC[C@H](O)c2ccc(Cl)nc2)CC3)cc1C(=O)O in the records?
Response given: 15.3

----------
system: Canis familiaris; assay: Ratio of AUC for drug to AUC for 4-((7S)-7-{[(2R)-2-(3-Chlorophenyl)-2-hydroxyethyl]amino}-5,6,7,8-tetrahydro-2-naphthalenyl)benzoic acid hydrochloride in dog at 0.1 or 0.20 mg/kg, po by cassette dosing assay; type: ADME, organism-based, Canis lupus familiaris; parameters: dose 0.2 mg/kg, route oral; details: in vivo, 0.2 mg/kg
metric: Ratio AUC

COc1cc(-c2ccc3c(c2)C[C@@H](NC[C@H](O)c2ccc(Cl)cc2)CC3)ccc1C(=O)O
0.53
O=C(O)c1ccc(-c2ccc3c(c2)C[C@@H](NC[C@H](O)c2ccc(Cl)nc2)CC3)cc1
0.53
O=C(O)c1ccc(-c2ccc3c(c2)C[C@@H](NC[C@H](O)c2ccc(Cl)cc2)CC3)cc1
1.25
O=C(O)c1ccc(-c2ccc3c(c2)C[C@@H](NC[C@H](O)c2ccc(Cl)cc2)CC3)c(F)c1
1.01
Cc1ccc([C@@H](O)CN[C@H]2CCc3ccc(-c4ccc(C(=O)O)cc4)cc3C2)cc1
0.77

P. O=C(O)c1ccc(-c2ccc3c(c2)C[C@@H](NC[C@H](O)c2cccc(Cl)c2)CC3)cc1
Q. Cc1cc(C(=O)O)ccc1-c1ccc2c(c1)C[C@@H](NC[C@H](O)c1ccc(Cl)cc1)CC2
Challenge: Rank P against Q by their Ratio AUC values and give the higher one. Give the label of your selection.
Response given: P
(P: 1, Q: 0.64)
